- study system: tetanus neurotoxin (TeNT), authentic tetanus holotoxin (Clostridium tetani, UniProt P04958 2-1315)
- Sequence (P04958 2-457 limits assumed, chain 1 of 2): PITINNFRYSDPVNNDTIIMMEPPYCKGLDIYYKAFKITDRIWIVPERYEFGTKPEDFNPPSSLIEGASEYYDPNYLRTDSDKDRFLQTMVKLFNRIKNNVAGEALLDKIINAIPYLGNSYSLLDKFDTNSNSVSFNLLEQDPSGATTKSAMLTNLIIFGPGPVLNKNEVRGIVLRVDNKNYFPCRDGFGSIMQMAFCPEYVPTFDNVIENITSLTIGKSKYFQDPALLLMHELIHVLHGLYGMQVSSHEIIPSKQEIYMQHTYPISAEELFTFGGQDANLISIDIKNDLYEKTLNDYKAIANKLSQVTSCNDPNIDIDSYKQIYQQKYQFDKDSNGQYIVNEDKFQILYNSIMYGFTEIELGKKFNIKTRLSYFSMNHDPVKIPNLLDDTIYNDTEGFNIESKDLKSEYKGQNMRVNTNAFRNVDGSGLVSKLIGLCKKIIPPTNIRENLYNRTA
- Sequence (P04958 458-1315 limits assumed, chain 2 of 2): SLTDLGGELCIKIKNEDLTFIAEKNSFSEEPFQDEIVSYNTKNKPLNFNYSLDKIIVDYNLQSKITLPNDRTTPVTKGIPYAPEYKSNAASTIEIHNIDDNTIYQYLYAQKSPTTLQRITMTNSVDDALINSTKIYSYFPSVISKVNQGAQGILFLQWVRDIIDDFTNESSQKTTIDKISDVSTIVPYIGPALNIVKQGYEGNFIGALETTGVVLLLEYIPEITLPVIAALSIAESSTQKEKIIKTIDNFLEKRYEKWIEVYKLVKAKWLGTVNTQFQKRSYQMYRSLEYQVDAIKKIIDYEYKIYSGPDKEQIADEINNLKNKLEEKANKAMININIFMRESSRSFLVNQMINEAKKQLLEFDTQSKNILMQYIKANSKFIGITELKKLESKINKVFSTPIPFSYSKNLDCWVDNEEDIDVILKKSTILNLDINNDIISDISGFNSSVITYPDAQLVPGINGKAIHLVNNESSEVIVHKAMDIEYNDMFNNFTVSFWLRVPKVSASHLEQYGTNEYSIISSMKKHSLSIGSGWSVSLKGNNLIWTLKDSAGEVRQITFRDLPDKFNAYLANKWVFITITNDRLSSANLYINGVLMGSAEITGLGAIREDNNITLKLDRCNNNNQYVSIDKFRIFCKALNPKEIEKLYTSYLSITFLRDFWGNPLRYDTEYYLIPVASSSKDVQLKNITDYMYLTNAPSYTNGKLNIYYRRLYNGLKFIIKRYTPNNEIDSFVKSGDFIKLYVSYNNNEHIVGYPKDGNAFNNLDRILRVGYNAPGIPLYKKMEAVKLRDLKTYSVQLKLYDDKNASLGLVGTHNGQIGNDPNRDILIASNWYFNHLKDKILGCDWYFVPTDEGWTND
- assay details: ELISA, directly coated TeNT, biotinylated binder
quantity measured: maximal absorbance at 450 nm
// no unit string in output, number only

GET /value?item= SVT31L (VHH) VHH: QVQLQESGGGSVQAGGSLTLSCAASEFSYNDYTIAWFRRAAGKGRVEDGEGVASITKSYDRAYDNRIHYADSVKGRFTISRDNAKNTVYLQMTSLNPSDTAVYYCALDITPPGGIGASLTEGFLFDYWGQGTQVTVSS &field=maximal absorbance at 450 nm returns 1.43

GET /value?item= SVT02L (VHH) VHH: QVQLQQSGGGSVQAGGSLRLSCVGPQRTFSTYGMGWFRQAPGKEREFVAGINYKGDTTYYADSVKGRFTISRDNAKNTLYLQMDSLKPEDRAVYQCARKGGLGGDYRDAGQYRYWGQGTQVTVSS &field=maximal absorbance at 450 nm returns 0.191

GET /value?item= SVT20L (VHH) VHH: QVQLQQSGGGLVQAGGSLRLSCAASGRTMSSYAMGWFRQAPGKQREFVAAISRSGGNTYYTDSVKGRFTISRDNAKNTLYLQMNSLKPEETAVYYCAADPNLMYESKWKYRALEAWGQGTLVTVSS &field=maximal absorbance at 450 nm returns 1.2

GET /value?item= SVT15L (VHH) VHH: QVQLQESGGGLVQTGGSLRLSCRASGRAFANYHFGWFRQAPGKDREFVASISWKGGSTYYANFALGRFTSSVDRAESSVYLQMSGLTPEDTATYYCAAHDGGDWNYHTGMDYWGKGILVTVSS &field=maximal absorbance at 450 nm returns 1.4

GET /value?item= SVT22L (VHH) VHH: QVQLQESGGGLVQAGESLRLSCTASGISFDDYAIGWFRQAPGQQRKGVACISKADGRTDYLGSVKGRFTLSTDNTKNTVHLQMNNLKPEDTALYTCAAEYKSCGMGYKPIDYWGQGMQVTVSS &field=maximal absorbance at 450 nm returns 1.34

GET /value?item= SVT25L (VHH) VHH: QVQLQESGGGLVQAGGSLRLSCAASGRTISVYAMGWFRQAPGKQREFVAAISRSDNTYYTDSVKGRFTISRDNVKNTLYLQMNSLKPEETAVYYCAADPNLMYETKWKYRALEAWGQGTLVTVSS &field=maximal absorbance at 450 nm returns 0.985

GET /value?item= SVT06L (VHH) VHH: QVQLQESGGGSVQAGGSLRLSCTASELSYDDYTIAWFRRAAGEGRVEDGEGVASITKSYDRAYDNKINYGHSVKGRFTISRDNAKNTVYLQMTDLLPSDTAVYYCALDITPPGGVGASLTEGFLFDYWGQGTQVTVSS &field=maximal absorbance at 450 nm returns 1.51

GET /value?item= SVT16L (VHH) VHH: QVQLQESGGGSVQAGDSLRLSCAASGRTISNYAMGWFRQAPGKQREFVAAISRSDNTYYTDSVKGRFTISRDNAKNTLYLQMNSLKPEETAVYYCAADPNLMYESKWKYRALEAWGQGTLVTVSS &field=maximal absorbance at 450 nm returns 1.42
